# Target Of Assay: UniProtKB Q14524
# Sequence (Q14524 whole entry): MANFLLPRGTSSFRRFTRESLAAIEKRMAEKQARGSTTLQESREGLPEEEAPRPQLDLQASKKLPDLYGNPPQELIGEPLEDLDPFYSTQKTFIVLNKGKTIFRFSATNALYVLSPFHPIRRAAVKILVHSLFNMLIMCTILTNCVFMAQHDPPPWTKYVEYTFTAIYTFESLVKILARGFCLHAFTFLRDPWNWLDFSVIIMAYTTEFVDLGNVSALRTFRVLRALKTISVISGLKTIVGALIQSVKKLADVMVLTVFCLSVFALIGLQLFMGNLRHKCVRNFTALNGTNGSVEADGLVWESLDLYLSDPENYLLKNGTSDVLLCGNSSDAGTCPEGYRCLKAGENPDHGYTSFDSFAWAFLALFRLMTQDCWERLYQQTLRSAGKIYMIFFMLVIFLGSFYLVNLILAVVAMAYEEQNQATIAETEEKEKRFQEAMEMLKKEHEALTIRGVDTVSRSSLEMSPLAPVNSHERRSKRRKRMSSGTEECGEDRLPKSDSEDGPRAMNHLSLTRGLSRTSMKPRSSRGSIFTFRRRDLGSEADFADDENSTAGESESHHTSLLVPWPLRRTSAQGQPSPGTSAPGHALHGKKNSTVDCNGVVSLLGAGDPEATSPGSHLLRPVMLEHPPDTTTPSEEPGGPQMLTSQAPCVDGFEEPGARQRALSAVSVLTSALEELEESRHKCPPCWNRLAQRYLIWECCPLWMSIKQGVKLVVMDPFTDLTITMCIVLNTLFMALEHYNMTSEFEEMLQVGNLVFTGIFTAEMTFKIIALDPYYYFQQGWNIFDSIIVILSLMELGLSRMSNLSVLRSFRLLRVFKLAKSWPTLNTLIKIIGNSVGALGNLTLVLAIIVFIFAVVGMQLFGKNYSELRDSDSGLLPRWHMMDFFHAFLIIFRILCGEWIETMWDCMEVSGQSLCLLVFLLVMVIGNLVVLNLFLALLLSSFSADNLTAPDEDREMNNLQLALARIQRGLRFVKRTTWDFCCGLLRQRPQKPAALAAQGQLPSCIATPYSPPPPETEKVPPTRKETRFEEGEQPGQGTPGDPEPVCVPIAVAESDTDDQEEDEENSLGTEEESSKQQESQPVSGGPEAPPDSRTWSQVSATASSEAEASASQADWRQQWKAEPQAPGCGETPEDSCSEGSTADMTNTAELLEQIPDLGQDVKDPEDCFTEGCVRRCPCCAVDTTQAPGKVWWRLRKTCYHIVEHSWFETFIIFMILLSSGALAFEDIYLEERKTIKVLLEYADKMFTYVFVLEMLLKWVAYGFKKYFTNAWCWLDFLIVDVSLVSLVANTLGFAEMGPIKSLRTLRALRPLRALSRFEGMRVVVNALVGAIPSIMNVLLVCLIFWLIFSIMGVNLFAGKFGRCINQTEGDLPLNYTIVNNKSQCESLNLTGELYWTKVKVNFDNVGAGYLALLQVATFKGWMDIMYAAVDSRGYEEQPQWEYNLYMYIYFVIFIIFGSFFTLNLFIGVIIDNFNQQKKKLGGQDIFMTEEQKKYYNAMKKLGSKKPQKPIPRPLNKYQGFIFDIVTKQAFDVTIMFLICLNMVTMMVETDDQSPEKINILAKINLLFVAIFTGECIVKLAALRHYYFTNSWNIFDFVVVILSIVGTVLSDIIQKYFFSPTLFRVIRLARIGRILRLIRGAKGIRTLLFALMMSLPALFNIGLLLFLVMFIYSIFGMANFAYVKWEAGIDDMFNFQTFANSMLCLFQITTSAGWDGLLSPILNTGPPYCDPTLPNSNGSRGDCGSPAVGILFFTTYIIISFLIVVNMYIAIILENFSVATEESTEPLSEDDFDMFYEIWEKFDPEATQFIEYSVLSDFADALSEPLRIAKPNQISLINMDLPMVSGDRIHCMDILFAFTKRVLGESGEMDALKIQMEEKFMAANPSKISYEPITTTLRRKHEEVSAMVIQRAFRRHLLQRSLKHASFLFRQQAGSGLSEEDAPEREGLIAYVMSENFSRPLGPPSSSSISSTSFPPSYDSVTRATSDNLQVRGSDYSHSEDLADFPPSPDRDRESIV
# Measurement Notes: Nav1.5 screening assay, IonWorks Quattro automated patch-clamp electrophysiology
# Assay type: cell-based
# Condition Notes: stable CHO or HEK293 cell line expressing Nav1.5; percent block at peak 1 and 25; 5 minutes compound incubation; read-out: Nav 1.5 IC50
# Description: Assay Procedure Nav1.7 and Nav1.5 Screening Assay Stable cell lines expressing the full-length protein of the voltage-gated sodium channels Nav1.7 or Nav1.5, with or without one beta-1, beta-2, beta-3, or beta-4 subunit, are created by transfected CHO cells or HEK293 cells, or any other suitable cell line, with a vector construct containing the complete open reading frame under a suitable promoter, as well known in the art. […]
pIC50: −log10 of the molar value.

| Chemical Structure | pIC50 |
| --- | --- |
| Cn1nc(N)c2ccc(-c3cccc(F)c3OCC(F)(F)C(F)(F)F)cc21 | < 4.48 |
| Cn1nc(N)c2ccc(-c3ccccc3OCC(F)(F)F)cc21 | < 4.48 |
| Nc1nn(CCCO)c2cc(-c3ccccc3OC(F)(F)F)ccc12 | 4.60 |
| Cn1nc(NCCO)c2ccc(-c3ccccc3OCC(F)(F)C(F)(F)F)cc21 | < 4.48 |
| COc1cccc(-c2ccc3c(N)nn(C)c3c2)c1OCC(F)(F)F | < 4.48 |
| COc1cccc(-c2ccc3c(N)nn(C)c3c2)c1OCC(F)F | < 4.48 |
| CNc1nn(C)c2cc(-c3cccc(F)c3OCC(F)F)ccc12 | < 4.48 |
| Cn1nc(N)c2ccc(-c3cccc(F)c3OCC(F)F)cc21 | 4.64 |
| Nc1nn(CCCO)c2cc(-c3ccccc3C(F)(F)F)ccc12 | 4.52 |
| Cn1nc(N)c2ccc(-c3cccnc3OCC(F)(F)F)cc21 | < 4.48 |

###

# Target Of Assay: UniProtKB Q14524
# Measurement Notes: Nav1.5 screening assay, IonWorks Quattro automated patch-clamp electrophysiology
# Type: cell-based
# Condition Notes: stable CHO or HEK293 cell line expressing Nav1.5; percent block at peak 1 and 25; 5 minutes compound incubation; read-out: Nav 1.5 IC50
List of IC50 values.
Parameter Measured: IC50 (µM)

| Chemical Structure | Result Unit | Inequality Symbol | Result Value |
| --- | --- | --- | --- |
| CN1CCC(CNc2nn(C)c3cc(-c4cccc(F)c4OCC(F)(F)F)ccc23)CC1 | µM | = | 4.5 |
| Cn1nc(N)c2ccc(-c3cccc(F)c3OC(F)F)cc21 | µM | > | 33 |
| COc1ccc(OCC(F)(F)C(F)(F)F)c(-c2ccc3c(N)nn(C)c3c2)c1 | µM | > | 33 |
| Cn1nc(NCCCO)c2ccc(-c3ccccc3OCC(F)(F)C(F)(F)F)cc21 | µM | = | 19.8 |
| Cn1nc(N)c2ccc(-c3c(F)cccc3OCC(F)(F)C(F)(F)F)cc21 | µM | > | 33 |

###

# Target Of Assay: voltage-gated sodium channel Nav1.7 (Homo sapiens (Human))
# Sequence (Q15858 whole entry): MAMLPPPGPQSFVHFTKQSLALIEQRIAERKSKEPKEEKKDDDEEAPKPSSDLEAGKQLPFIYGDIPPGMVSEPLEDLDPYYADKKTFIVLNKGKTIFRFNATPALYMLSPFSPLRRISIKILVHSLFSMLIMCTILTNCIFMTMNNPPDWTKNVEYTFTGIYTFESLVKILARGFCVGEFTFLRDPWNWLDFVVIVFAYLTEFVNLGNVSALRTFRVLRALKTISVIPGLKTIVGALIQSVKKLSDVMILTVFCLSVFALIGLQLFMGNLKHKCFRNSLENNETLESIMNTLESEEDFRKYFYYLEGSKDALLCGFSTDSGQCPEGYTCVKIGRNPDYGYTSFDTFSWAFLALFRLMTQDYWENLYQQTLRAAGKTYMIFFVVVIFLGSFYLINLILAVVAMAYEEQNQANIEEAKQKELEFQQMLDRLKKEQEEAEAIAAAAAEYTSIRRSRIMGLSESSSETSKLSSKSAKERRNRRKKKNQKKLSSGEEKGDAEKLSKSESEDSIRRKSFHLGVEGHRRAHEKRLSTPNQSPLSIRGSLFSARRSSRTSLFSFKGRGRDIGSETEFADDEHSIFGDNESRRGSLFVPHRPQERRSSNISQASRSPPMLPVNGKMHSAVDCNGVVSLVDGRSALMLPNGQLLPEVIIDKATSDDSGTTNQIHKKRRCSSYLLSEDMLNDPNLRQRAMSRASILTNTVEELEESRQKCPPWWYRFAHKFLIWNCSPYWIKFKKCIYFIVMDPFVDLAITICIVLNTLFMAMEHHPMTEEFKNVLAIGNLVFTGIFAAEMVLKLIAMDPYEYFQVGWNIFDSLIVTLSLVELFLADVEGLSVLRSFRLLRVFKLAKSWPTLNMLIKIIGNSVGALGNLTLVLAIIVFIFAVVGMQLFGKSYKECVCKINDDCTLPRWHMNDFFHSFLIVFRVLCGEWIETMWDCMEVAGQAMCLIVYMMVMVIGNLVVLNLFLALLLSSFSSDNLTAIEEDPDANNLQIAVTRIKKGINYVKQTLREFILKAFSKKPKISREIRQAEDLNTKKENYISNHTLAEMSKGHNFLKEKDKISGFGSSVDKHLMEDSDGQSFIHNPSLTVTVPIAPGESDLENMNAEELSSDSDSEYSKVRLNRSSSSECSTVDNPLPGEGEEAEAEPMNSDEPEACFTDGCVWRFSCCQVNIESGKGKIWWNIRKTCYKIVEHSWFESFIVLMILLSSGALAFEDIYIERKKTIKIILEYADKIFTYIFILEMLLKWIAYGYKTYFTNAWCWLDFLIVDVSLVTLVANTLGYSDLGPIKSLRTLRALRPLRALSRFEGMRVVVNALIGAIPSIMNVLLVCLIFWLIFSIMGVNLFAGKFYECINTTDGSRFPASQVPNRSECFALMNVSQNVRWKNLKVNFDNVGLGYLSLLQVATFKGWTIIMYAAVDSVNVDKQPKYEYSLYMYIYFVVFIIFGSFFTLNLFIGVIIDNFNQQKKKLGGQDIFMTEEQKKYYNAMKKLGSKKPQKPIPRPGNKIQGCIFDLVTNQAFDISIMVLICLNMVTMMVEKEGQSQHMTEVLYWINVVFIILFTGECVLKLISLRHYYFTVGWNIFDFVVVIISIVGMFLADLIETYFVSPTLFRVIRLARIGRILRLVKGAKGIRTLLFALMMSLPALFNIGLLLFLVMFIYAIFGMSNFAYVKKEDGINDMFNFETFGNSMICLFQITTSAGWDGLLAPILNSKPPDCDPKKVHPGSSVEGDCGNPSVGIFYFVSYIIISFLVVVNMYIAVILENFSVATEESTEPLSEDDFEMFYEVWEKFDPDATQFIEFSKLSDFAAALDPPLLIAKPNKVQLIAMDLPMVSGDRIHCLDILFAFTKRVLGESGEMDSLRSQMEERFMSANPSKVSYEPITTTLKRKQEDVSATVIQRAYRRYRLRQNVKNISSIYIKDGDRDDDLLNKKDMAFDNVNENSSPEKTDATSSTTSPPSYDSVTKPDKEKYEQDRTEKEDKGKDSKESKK
# Measurement Notes: Nav1.7 screening assay, IonWorks Quattro automated patch-clamp electrophysiology
# Condition Notes: stable CHO or HEK293 cell line expressing Nav1.7; percent block at peak 1 and peak 10; 5 minutes compound incubation; read-out: Nav 1.7 IC50
pIC50: −log10 of the molar value.
Parameter Measured: pIC50

| Compound | Parameter Measured | Result Value |
| --- | --- | --- |
| CN1CCC(CNc2nn(C)c3cc(-c4cccc(F)c4OCC(F)(F)F)ccc23)CC1 [Example 44] | pIC50 | 5.73 |
| Nc1nn(CCCO)c2cc(-c3ccccc3C(F)(F)F)ccc12 [Example 67] | pIC50 | 6.13 |
| Cn1nc(N)c2ccc(-c3cccc(F)c3OCC(F)(F)C(F)(F)F)cc21 [Example 22] | pIC50 | 7.00 |
| Cn1nc(N)c2ccc(-c3ccccc3OCC(F)(F)F)cc21 [Example 8] | pIC50 | 6.49 |
